Source: paper PMC8102479

# Measured Target: MtHISN2 (Medicago truncatula, UniProt A0A072U2X9, S113A)
# Construct: N-truncated at Val49 (chloroplast transit peptide removed), residues 49-283, N-terminal Ser-Asn-Ala linker left, His6-tag cleaved with TEV; E. coli BL21 Gold; both PRA-CH and PRA-PH domains
# Assay Info: isothermal titration calorimetry
Readout: Kd
Include the unit after the number when you answer.

Problem: Answer with reported Kd of Nc1ncnc2c1ncn2[C@@H]1O[C@H](COP(=O)(O)O)[C@@H](O)[C@H]1O [AMP]
Solution: 64 µM

* * *

# Measured Target: MtHISN2 (Medicago truncatula, UniProt A0A072U2X9, H143E)
# Construct: N-truncated at Val49 (chloroplast transit peptide removed), residues 49-283, N-terminal Ser-Asn-Ala linker left, His6-tag cleaved with TEV; E. coli BL21 Gold; both PRA-CH and PRA-PH domains
# Sequence (A0A072U2X9 entry or part of it H143E): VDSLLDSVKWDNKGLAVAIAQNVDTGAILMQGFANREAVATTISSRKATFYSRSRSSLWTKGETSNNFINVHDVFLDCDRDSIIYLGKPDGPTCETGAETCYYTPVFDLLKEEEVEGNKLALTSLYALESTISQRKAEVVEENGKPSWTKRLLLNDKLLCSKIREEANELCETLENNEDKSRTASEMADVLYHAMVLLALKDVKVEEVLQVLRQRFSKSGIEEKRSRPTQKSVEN
# Assay Info: isothermal titration calorimetry
Readout: Kd (µM)
One number for each entry, in µM.

Problem: Answer briefly: Kd recorded on MtHISN2 (Medicago truncatula, UniProt A0A072U2X9, H143E) for Nc1ncnc2c1ncn2[C@@H]1O[C@H](COP(=O)(O)O)[C@@H](O)[C@H]1O
Solution: 68
